# Test system: OVCAR-3
# ASSAY_METHOD_TEXT: In vitro cytotoxicity against human ovarian OVCAR-3 cells.
# Format: functional
Binning of GI50 into classes: b0 = under 7 µM, b1 = from 7 µM up to 20 µM, b2 = 20 µM and over

{"MOLECULE": "O=C(NCCN1CCOCC1)c1cc(NCc2cc(O)ccc2O)ccc1O", "SYSTEM_UNDER_TEST": "OVCAR-3", "ASSIGNED_LABEL": "b2"}
{"MOLECULE": "O=C(NCCc1ccc(O)cc1)c1cc(NCc2cc(O)ccc2O)ccc1O", "SYSTEM_UNDER_TEST": "OVCAR-3", "ASSIGNED_LABEL": "b2"}
{"MOLECULE": "O=C(NCCc1ccc(F)cc1)c1cc(NCc2cc(O)ccc2O)ccc1O", "SYSTEM_UNDER_TEST": "OVCAR-3", "ASSIGNED_LABEL": "b1"}
{"MOLECULE": "O=C(NCc1ccccc1)c1cc(NCc2cc(O)ccc2O)ccc1O", "SYSTEM_UNDER_TEST": "OVCAR-3", "ASSIGNED_LABEL": "b2"}
{"MOLECULE": "O=C(NCCc1ccccc1)c1ccc(NCc2cc(O)ccc2O)cc1", "SYSTEM_UNDER_TEST": "OVCAR-3", "ASSIGNED_LABEL": "b0"}
{"MOLECULE": "O=C(NCCc1ccccn1)c1cc(NCc2cc(O)ccc2O)ccc1O", "SYSTEM_UNDER_TEST": "OVCAR-3", "ASSIGNED_LABEL": "b1"}
{"MOLECULE": "CCCCCCCCCCCCNC(=O)c1cc(NCc2cc(O)ccc2O)ccc1O", "SYSTEM_UNDER_TEST": "OVCAR-3", "ASSIGNED_LABEL": "b0"}
{"MOLECULE": "O=C(NC1CCc2ccccc2C1)c1cc(NCc2cc(O)ccc2O)ccc1O (stereo not given)", "SYSTEM_UNDER_TEST": "OVCAR-3", "ASSIGNED_LABEL": "b1"}
{"MOLECULE": "CCCCCCNC(=O)c1cc(NCc2cc(O)ccc2O)ccc1O", "SYSTEM_UNDER_TEST": "OVCAR-3", "ASSIGNED_LABEL": "b0"}
